- method notes: Half life in rat at 10 mg/kg, po
- Type: ADME, organism-based
- condition label: in vivo
attribute measured: half-life (h)
Write the answer as a number in h, unit excluded.

Kindly indicate its recorded half-life. Item: `COc1cc2ncnc(Oc3ccc(Nc4nccc5[nH]cc(-c6ccc(F)cc6)c(=O)c45)cc3)c2cc1OC`
12.5

* * *

- method notes: Half life in rat at 5 mg/kg, iv
- Assay type: ADME, organism-based
- condition label: in vivo
attribute measured: half-life (h)
Write the answer as a number in h, unit excluded.

Kindly indicate its recorded half-life. Item: `COc1cc2ncnc(Oc3ccc(Nc4nccc5[nH]cc(-c6ccc(F)cc6)c(=O)c45)cc3)c2cc1OC`
14
